Target: T1, APC8401-AA
T1 chain: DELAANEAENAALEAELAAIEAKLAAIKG
Test: two-hybrid library CCmax;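 also: natural log of median RNA to DNA barcode read ratio; higher means stronger binding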
Conditions: mean of both orientations
quantity: interaction score

| binder | interaction score |
| --- | --- |
| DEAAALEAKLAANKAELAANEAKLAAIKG [APC2981-AA] | -1.71 |
| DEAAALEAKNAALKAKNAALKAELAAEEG [APC2556-AA] | -1.48 |
| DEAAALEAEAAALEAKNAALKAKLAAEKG [APC2257-AA] | -1.32 |
| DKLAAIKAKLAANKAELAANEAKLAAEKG [APC1987-AA] | -1.6 |
| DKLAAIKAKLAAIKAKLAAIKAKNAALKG [APC1115-AA] | -1.04 |
| DELAAEEAELAAIEAELAANEAELAANEG [APC6088-AA] | -1.56 |
| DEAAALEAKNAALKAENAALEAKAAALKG [APC2543-AA] | -1.23 |
